protocolNotes: clinical
statedConditions: male, human, in vivo, 0.6 mg
reportedEndpoint: Tmax (h)
Supply the numeric figure in h, leaving out any unit text.

Problem: Please give the measured Tmax for this molecule: `COc1cc2c(c(OC)c1OC)-c1ccc(OC)c(=O)cc1[C@@H](NC(C)=O)CC2`
Result: 1.5

====

protocolNotes: Colchicine pharmacokinetics coadministered with voriconazole
statedConditions: male, human, in vivo, Cmax GEOMETRIC LSMEANS, Treatment-2: colchicine 0.6 mg + voriconazole
reportedEndpoint: Cmax (ng/mL)
Supply the numeric figure in ng/mL, leaving out any unit text.

Problem: Please give the measured Cmax for this molecule: COc1cc2c(c(OC)c1OC)-c1ccc(OC)c(=O)cc1[C@@H](NC(C)=O)CC2 [Colchicine]
Result: 1.83
